assay: NCI Yeast Anticancer Drug Screen. Data for the mlh1 rad18 strain (AID 175); settings: S. cerevisiae mlh1 rad18 strain growth inhibition; at 50.0 µM; stronger effect = higher value
This is part of a sample that, as a whole, favours compounds with a hit. Of some 79,000 tested, about 15% had one in any assay.
# reported growth inhibition; entries follow
Provide only the numeric value, understood in %.

Q: Name the recorded growth inhibition for COc1ccc(C(=O)C(C)CN2CCOCC2)cc1 (centres undefined) .
A: 53.5

Q: Now try `Cc1ccccc1NC(=O)NN` .
A: -5.35

Q: Now try `N#Cc1ccc(/C=C2\Cc3ccccc3C2=O)cc1` .
A: 3.5

Q: Now try `NC(=O)c1ccccc1NC(=O)CCCOc1ccccc1` .
A: 9.2

Numbers sourced from PubChem BioAssay (NCI).
